The reported numbers originate from BindingDB's records for doi:10.1002/cbic.201600673.

- Test Target: Galectin-1 [C3S] (Human, UniProt P09382, C3S)
- Sequence (P09382 2-135 C3S limits assumed): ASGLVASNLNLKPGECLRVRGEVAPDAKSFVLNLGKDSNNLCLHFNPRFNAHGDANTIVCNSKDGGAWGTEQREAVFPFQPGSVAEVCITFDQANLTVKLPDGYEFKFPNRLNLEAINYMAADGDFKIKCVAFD
- Assay Notes: Fluorescence Polarization Assay
- Stated Conditions: 25 °C
Measurement Type: pKd
Worth noting: pKd values are minus log10 of concentrations stated in mol/L.

Reported pKd for COc1cccc(C(=O)NC2C(O)[C@H](O[C@@H]3OC(CO)[C@H](O)C(OCc4ccc5ccccc5c4)C3O)C(CO)O[C@H]2OCCNC(=O)CCCCCN2C(=O)C=CC2=O)c1 (stereo partly specified) was 4.37

---

- Test Target: UniProt:P47929
- Sequence (P47929 whole entry): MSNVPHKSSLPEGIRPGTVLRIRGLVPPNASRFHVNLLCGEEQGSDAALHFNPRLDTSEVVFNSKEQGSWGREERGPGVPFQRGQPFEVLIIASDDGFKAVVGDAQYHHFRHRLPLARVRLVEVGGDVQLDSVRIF
- Assay Notes: Fluorescence Polarization Assay
- Stated Conditions: 25 °C
Measurement Type: pKd
Worth noting: pKd values are minus log10 of concentrations stated in mol/L.

Reported pKd for COc1cccc(C(=O)NC2C(O)[C@H](O[C@@H]3OC(CO)[C@H](O)C(OCc4ccc5ccccc5c4)C3O)C(CO)O[C@H]2OCCNC(=O)CCCCCN2C(=O)C=CC2=O)c1 (stereo partly specified) was 3.89
